Where do these numbers come from? They come from PubChem BioAssay (NCI).

# Tested on: HT29 colon
# procedure-text: NCI-60 one-dose screen, 48 h (100 = growth as untreated, 0 = no growth, -100 = all killed)
# measurement-parameters: 10 µM
Compounds without any hit were thinned out: in the full panel of roughly 83,000, 20% have a hit.
Measured growth by item

molecule	growth / %
S=C1N(c2ccccc2)CN(C2CCCCC2)CN1c1ccccc1	99.5
CCOC(=O)CC(S(=O)(=O)c1ccccc1)S(=O)(=O)c1ccccc1	91
CC(=O)N[C@H](C(=O)N[C@@H](CCCNC(=N)N)C(=O)N[C@@H](CCCCN)C(=O)N[C@@H](CCCNC(=N)N)C(=O)NC(C(=O)N[C@@H](CC(C)C)C(=O)N[C@@H](CCCNC(=N)N)C(=O)N[C@@]1(C)CCC/C=C\CCC[C@@](C)(C(=O)N[C@@H](CCCNC(=N)N)C(=O)N[C@@H](CCC(=O)O)C(=O)N[C@@H](CC(C)C)C(=O)N[C@H](C(=O)N[C@@H](CCC(=O)O)C(N)=O)C(C)C)NC(=O)[C@H](CCC(N)=O)NC(=O)[C@H](CC(C)C)NC(=O)[C@H](CC(C)C)NC1=O)[C@@H](C)O)C(C)C (stereo partly specified)	26.9
Cc1cc(Br)nnc1Br	113
O=C(Nc1ccc(NS(=O)(=O)c2ccc(F)cc2)cc1)C12CC3CC(CC(C3)C1)C2	89.6
O=S(=O)(Oc1ccc(-c2ccc3sccc3c2)cc1)c1ccc(F)cc1	96
CCOC(=O)c1sc2ncnc(Nc3ccc(NC(=O)Nc4ccc(Cl)cc4)cc3)c2c1C	43
COc1cc2cc(Oc3ccc(NC(=O)Nc4ccc(C(F)(F)F)cc4)cc3)c(C)nc2cc1OC	44.6
CCOC(=O)c1cc(C(=O)c2cc(OC)c(OC)c(OC)c2)n2ncc3ccccc3c12	29.6
CC(C)Cc1ccc([C@H](C)C(=O)O)cc1	106
NS(=O)(=O)c1ccc(N2N=C(c3ccccc3)CCC2=O)cc1	98.6
CN(C)CCOc1ccc(-c2nc3sccn3c2-c2ccnc(S(C)(=O)=O)n2)cc1	103
O=C(O)c1cn(C2CC2)c2cc(N3CCN(C(=O)c4cc(-c5ccc(Cl)cc5)nc5ccccc45)CC3)c(F)cc2c1=O	96.1
CC(CN(C)C)Oc1ccccc1NC1=C(Cl)C(=O)C(Nc2ccccc2OC(C)CN(C)C)=C(Cl)C1=O (stereo unspecified)	-70.1
Cc1cc(C)nc(NS(=O)(=O)c2ccc(Nc3nc4nc(NCc5ccccc5)nc(-c5ccc(O)cc5)c4c(=O)[nH]3)cc2)n1	32.2
COc1cc2cc(Oc3ccc(NC(=O)c4cccc(C(F)(F)F)c4)cc3)c(C)nc2cc1OC	31.3
CCN(CC)CCCC(C)N=C(C1=C(C(=NC(C)CCCN(CC)CC)c2cccc(OC)c2)C(=O)NC1=O)c1cccc(OC)c1 (stereo unspecified)	-10.5
CCOc1ccccc1/C=N\N=C\c1ccccc1O	101
CC(C)c1ccc(C(C)C(=O)N(CC2=C(C(C)c3ccccn3)c3ccccc3C2)C(C)C)cc1 (stereo unspecified)	22.3
COc1cc(-c2nn(-c3cccc(NC(=O)NCCNC(=O)c4ccccc4)c3)cc2-c2ccncc2)ccc1Cl	5.63
C/C(=C/CCC(C)[C@@H]1CC[C@]2(C)C3=C(CC[C@@]12C)[C@@]1(C)CCC(=O)C(C)(C)[C@@H]1CC3)C(=O)O (stereo partly specified)	-65.8
COc1ccc(/C=C2\CCCC3=C2NC(N)=NC3c2ccc(OC)cc2)cc1 (stereo unspecified)	93.2
O=C(O)c1ccc(-n2cc(CNc3ccc(Cl)cc3)c(-c3ccccc3)n2)cc1	102
COc1ccc(C(=O)N2C=Cc3ccccc3C2C#N)cc1 (stereo unspecified)	110
CCOC(=O)C1=CSC2=NC3=C(CCC/C3=C\c3cc(OC)c(OC)c(OC)c3)C(c3cc(OC)c(OC)c(OC)c3)N12 (stereo unspecified)	12.9
C#CC(C)(O)[C@@H]1C[C@H](CC(=O)O)C1(C)C (stereo partly specified)	109
Brc1ccc2c(c1)-c1ccccc1C1=NCCN12	-14.9
COc1ccc(/C=C2\CCCC3=C2N=C2SC(C)=CN2C3c2ccc(OC)cc2)cc1 (stereo unspecified)	104
COc1ccc(C2=Cn3c(CCC(=O)c4nc5ccccc5[nH]4)nnc3SC2)cc1	58.2
Cc1ccc(C(SCC(N)C(=O)O)(c2ccc(C)cc2)c2ccc(C)cc2)cc1 (stereo unspecified)	14.1
CNC(=O)c1cn(C2CC2)c2cc(N3CCN(C(=O)c4cc(OC)c(OC)c(OC)c4)CC3)c(F)cc2c1=O	99.2
